assay: Spectral characteristics: molar extinction coefficient and specific absorbance; type: physicochemical; settings: ethyl acetate, 10 μg/ml
Metric: Wavelength of maximum molar extinction coefficient UVC

> print(dat)
                                   molecule  assay.result
1  COc1ccc(C(=O)CC(=O)c2ccc(C(C)(C)C)cc2)cc1 [Parsol 1789 ®, reference compound]           275
2     COc1ccc(-c2nnc(N)nc2-c2ccc(OC)cc2)cc1        at 280
3  COc1ccc(-c2nnc(-c3ccccc3O)nc2-c2ccc(OC)cc2)cc1        at 280
4  Oc1ccccc1-c1nnc(-c2ccccc2)c(-c2ccccc2)n1        at 280
5  Oc1ccc(-c2nnc(-c3ccccc3)c(-c3ccccc3)n2)cc1        at 280
